Field: log10 of IC50. Provide a value for each of the compounds that follow.
Target: cGKII (Homo sapiens)
Construct: gene PRKG2; recombinant full-length, His-tagged, baculovirus insect cell expression; dimer
Sequence (Q13237 2-762): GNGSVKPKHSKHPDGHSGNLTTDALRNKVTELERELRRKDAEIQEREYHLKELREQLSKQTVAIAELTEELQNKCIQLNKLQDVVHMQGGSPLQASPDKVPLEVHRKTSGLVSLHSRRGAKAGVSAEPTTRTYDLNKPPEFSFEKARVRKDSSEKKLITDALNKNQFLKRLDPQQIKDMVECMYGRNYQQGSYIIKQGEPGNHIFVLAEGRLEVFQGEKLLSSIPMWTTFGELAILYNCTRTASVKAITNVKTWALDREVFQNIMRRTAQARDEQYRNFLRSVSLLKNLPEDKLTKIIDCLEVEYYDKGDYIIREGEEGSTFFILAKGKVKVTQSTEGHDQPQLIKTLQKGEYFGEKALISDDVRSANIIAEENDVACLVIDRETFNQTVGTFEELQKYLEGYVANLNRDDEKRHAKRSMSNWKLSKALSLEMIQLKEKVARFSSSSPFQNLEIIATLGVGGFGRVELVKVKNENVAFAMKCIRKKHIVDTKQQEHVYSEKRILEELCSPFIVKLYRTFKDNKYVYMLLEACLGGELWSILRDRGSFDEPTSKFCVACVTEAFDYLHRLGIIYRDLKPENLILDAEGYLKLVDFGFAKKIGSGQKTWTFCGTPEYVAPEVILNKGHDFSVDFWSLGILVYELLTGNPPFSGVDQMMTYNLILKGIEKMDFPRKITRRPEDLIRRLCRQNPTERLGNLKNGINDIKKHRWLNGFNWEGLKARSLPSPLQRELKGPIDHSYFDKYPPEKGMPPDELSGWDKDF
Assay: […]-ATP peptide (2A3) phosphorylation
Assay type: biochemical
Conditions: read-out: pIC50 in vitro (converted)
The base-10 logarithm of IC50, taken with IC50 in nM, is what appears here.

Illustrative cases are given below, each with its answer.
MOLECULE | OBSERVATION TYPE | RESULT NUMBER
c1ccc2c(CCNc3nccc(-c4ccc5c(c4)OCCO5)n3)c[nH]c2c1 | log10 of IC50 | 3.80
OCCNc1nccc(-c2ccc(-n3ccnc3)cc2)n1 | log10 of IC50 | 2.50
COc1ccc(CCNc2nccc(-c3ccc4c(c3)OCCO4)n2)cc1OC | log10 of IC50 | 2.70

For each of the items listed, what is its log10 of IC50?
1. c1coc(CNc2nccc(-c3ccc(-n4ccnc4)cc3)n2)c1
2. C#CCNc1nccc(-c2ccc(-n3ccnc3)cc2)n1
3. COc1ccc(CCNc2nccc(-c3ccc4ccccc4c3)n2)cc1OC

A.
1: 4.00; 2: 1.80; 3: 2.50

# compound c1csc(-c2ccnc(NCCc3c[nH]c4ccccc34)n2)c1 ; its log10 of IC50 = 3.80
